Reference source: patent EP2047849A1

Biological target: UniProt:O96017
Sequence (O96017 whole entry): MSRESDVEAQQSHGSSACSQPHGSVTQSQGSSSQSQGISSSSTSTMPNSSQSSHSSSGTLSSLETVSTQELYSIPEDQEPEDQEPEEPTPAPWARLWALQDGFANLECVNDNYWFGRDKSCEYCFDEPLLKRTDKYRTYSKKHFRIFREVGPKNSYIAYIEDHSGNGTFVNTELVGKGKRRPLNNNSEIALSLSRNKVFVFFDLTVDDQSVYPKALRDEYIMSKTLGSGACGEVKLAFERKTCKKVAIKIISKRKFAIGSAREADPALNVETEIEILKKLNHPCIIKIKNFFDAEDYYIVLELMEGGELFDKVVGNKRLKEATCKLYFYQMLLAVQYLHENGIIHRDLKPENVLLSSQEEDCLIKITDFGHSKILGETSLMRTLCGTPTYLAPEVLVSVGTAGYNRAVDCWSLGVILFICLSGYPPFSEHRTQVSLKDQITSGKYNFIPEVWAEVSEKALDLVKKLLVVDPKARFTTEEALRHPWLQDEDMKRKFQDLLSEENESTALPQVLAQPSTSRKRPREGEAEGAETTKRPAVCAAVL
Assay: 33PanQinase Activity Assay (in vitro protein kinase activity assay)
Conditions: recombinant purified kinase, 1 µM [γ-33P]-ATP
pIC50: −log10 of the molar value.
# pIC50 >= 7 gives satisfied, anything below gives not satisfied

Completed entries (count: 5):
>  <MOLECULE>
NC(=O)CCn1c2ccccc2c2c3c(c4c5ccccc5[nH]c4c21)C(=O)NC3=O

>  <MEASURED_TARGET>
UniProt:O96017

>  <DISCRETE_LABEL>
not satisfied

$$$$
>  <MOLECULE>
CN(C)CC(O)Cn1c2ccc(O)cc2c2c3c(c4c5cc(O)ccc5n(C)c4c21)C(=O)NC3=O (racemic)

>  <MEASURED_TARGET>
UniProt:O96017

>  <DISCRETE_LABEL>
not satisfied

$$$$
>  <MOLECULE>
CN(C)CCCn1c2ccc(O)cc2c2c3c(c4c5cc(O)ccc5n(C)c4c21)C(=O)NC3=O

>  <MEASURED_TARGET>
UniProt:O96017

>  <DISCRETE_LABEL>
satisfied

$$$$
>  <MOLECULE>
Cn1c2ccccc2c2c3c(c4c5ccccc5[nH]c4c21)C(=O)NC3=O

>  <MEASURED_TARGET>
UniProt:O96017

>  <DISCRETE_LABEL>
not satisfied

$$$$
>  <MOLECULE>
COc1ccc2c(c1)c1c3c(c4c5ccccc5n(C)c4c1n2CCC#N)C(=O)NC3=O

>  <MEASURED_TARGET>
UniProt:O96017

>  <DISCRETE_LABEL>
not satisfied

$$$$

Now examine the next entry.
Form field: pIC50 at least 7? Entry: `COc1ccc2[nH]c3c(c4c(c5c6cc(OC)ccc6n(C)c35)C(=O)NC4=O)c2c1`
satisfied

* * *

Biological target: RSK1 (Homo sapiens)
Sequence (Q15418 whole entry): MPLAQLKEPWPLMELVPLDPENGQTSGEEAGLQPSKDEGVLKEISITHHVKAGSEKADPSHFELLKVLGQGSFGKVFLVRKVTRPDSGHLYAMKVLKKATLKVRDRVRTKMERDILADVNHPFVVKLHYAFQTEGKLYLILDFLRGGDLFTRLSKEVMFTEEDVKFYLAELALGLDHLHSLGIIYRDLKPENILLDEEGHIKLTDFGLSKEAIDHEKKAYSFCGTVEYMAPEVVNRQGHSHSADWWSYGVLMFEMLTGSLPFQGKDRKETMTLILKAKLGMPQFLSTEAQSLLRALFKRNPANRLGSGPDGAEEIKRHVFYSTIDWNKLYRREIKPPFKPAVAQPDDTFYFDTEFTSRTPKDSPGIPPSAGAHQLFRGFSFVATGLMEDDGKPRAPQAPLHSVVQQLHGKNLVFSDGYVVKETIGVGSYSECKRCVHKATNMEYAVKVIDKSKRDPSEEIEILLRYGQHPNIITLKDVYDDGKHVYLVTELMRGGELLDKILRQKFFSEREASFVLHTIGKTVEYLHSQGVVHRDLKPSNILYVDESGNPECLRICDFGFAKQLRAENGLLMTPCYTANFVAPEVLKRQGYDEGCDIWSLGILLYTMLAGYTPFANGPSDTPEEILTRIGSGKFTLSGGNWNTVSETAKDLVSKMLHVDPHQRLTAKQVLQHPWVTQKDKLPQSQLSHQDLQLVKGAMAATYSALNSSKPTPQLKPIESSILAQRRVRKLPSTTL
Assay: 33PanQinase Activity Assay (in vitro protein kinase activity assay)
Conditions: recombinant purified kinase, 1 µM [γ-33P]-ATP
Protocol: Inhibition of protein kinases by compounds was measured in proprietary protein kinase activity assay (^33PanQinase® Activity Assay) using recombinant purified protein kinases. All protein kinases were expressed in Sf9 insect cells as recombinant GST-fusion proteins or His-tagged proteins by means of the baculovirus expression system. All kinases were produced from human cDNAs. […] Activity was measured by determination of the incorporation of radio labelled phosphate into a substrate. […]
READOUT: pIC50
Please treat pIC50 as minus the base-10 logarithm of the molar concentration.

Checklist item: pIC50 tested on RSK1 (Homo sapiens), entry COc1ccc2[nH]c3c(c4c(c5c6cc(OC)ccc6n(C)c35)C(=O)NC4=O)c2c1 [PQ-013] , value?
7.64

* * *

Reported log10 of IC50 by item:
Biological target: UniProt Q05397
Sequence (Q05397 whole entry): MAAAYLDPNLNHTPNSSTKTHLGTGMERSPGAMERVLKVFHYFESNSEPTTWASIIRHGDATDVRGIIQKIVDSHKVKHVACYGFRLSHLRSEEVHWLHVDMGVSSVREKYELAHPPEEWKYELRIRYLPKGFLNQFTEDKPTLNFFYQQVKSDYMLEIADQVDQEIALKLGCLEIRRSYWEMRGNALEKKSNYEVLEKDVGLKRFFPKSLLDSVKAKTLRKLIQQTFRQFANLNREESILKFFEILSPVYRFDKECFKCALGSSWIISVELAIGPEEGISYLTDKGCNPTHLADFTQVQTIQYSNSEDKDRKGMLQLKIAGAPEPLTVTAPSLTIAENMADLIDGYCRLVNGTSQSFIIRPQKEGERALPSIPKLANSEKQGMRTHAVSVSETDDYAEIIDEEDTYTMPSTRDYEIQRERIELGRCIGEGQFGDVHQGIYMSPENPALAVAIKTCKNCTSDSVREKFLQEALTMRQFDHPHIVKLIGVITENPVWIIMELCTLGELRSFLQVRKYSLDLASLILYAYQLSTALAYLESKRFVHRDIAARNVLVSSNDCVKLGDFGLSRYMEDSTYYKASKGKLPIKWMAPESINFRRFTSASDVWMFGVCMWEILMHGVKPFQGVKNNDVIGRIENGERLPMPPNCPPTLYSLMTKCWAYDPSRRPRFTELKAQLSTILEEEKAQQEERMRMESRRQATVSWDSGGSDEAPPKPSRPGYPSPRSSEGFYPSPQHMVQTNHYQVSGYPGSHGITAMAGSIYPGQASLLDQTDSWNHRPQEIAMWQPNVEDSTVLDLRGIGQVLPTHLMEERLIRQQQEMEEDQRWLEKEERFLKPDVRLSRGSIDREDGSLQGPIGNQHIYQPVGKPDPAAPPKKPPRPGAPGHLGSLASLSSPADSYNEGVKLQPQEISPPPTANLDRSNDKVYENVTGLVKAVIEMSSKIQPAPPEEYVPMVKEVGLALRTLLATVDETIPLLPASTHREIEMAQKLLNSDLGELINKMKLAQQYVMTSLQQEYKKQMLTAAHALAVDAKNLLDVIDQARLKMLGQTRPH
Assay: 33PanQinase Activity Assay (in vitro protein kinase activity assay)
Details: recombinant purified kinase, 1 µM [γ-33P]-ATP
# log10 transformed; quantity=IC50; unit=nM

Field: example entries. Status: answers known.
>  <COMPOUND>
CN(C)CCCn1c2ccc(O)cc2c2c3c(c4c5cc(O)ccc5n(C)c4c21)C(=O)NC3=O

>  <RECORDED_NUMBER>
1.15

$$$$
>  <COMPOUND>
NC(=O)CCn1c2ccccc2c2c3c(c4c5ccccc5[nH]c4c21)C(=O)NC3=O

>  <RECORDED_NUMBER>
3.38

$$$$
>  <COMPOUND>
CN(C)CC(O)Cn1c2ccc(O)cc2c2c3c(c4c5cc(O)ccc5n(C)c4c21)C(=O)NC3=O (racemic)

>  <RECORDED_NUMBER>
3.00

$$$$

Checklist item: log10 of IC50 tested on UniProt Q05397, entry `COc1ccc2[nH]c3c(c4c(c5c6cc(OC)ccc6n(C)c35)C(=O)NC4=O)c2c1` , value?
4.56

Entry to check: `COc1ccc2c(c1)c1c3c(c4c5ccccc5n(C)c4c1n2CCC#N)C(=O)NC3=O`
3.08
